B1: INTS4 (parent)
chain: AKQIMEETYKMEFMYSGVENKQVV

Variants of: B1
Assay: protein stability index of a GFP-peptide fusion (GPS, HEK-293T) (PSI 1-6); higher = more stable;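 further: lentivirally expressed fusions sorted by FACS into six bins by GFP to DsRed ratio, PSI derived from sequencing read proportions per bin multiplied by bin number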
Study Conditions: c terminus: a fixed tail appended
Rule: protein stability index of 2 or more gives T; anything lower gives F.

INSERT INTO assay_data (mutant_designation, classification) VALUES
  ('E6H', 'T'),
  ('K21M', 'T'),
  ('Q3W', 'T'),
  ('V24Q', 'F'),
  ('V18G', 'T');
